# System: HeLa S3 cells
# Protocol Summary: HeLa S3 cell growth inhibition test (neutral red staining)
# Type: cell-based
# Condition Set: Homo sapiens; HeLa S3, 72 hours culture with compound
# Procedure: Test Example 1: HeLa S3 Cell Growth Inhibition Test […] HeLa S3 was cultured at 37°C for one night in a CO2 incubator, each 0.05 ml of test compounds which had been appropriately diluted with the culture solution was added thereto, and the mixture was cultured at 37°C for 72 hours in a CO2 incubator. […] Then, the pigment was extracted with 0.001 N hydrochloric acid/30% ethanol and the absorbance at 550 nm was measured by a microplatereader. […]
Reported values of IC50 for individual entries

Take a look at these entries with their results.
compound="COc1cc(C(=O)/C(=C/c2c[nH]c3ccccc23)SCC(O)CO)cc(OC)c1OC (centres unmarked) [Compound 21]" parameter_measured=IC50 observed="4.8 nM"
compound="COc1cc(C(=O)/C(=C/c2c[nH]c3ccccc23)SC)cc(OC)c1OC [Compound 9]" parameter_measured=IC50 observed="2.2 nM"
compound="COc1cc(C(=O)/C(=C/c2c[nH]c3cc(C)ccc23)SCCO)cc(OC)c1OC [Compound 13]" parameter_measured=IC50 observed="2.5 nM"
compound="CCO/C(=C\\c1c[nH]c2ccccc12)C(=O)c1cc(OC)c(OC)c(OC)c1 [Compound 2]" parameter_measured=IC50 observed="2.5 nM"
compound="CO/C(=C\\c1c[nH]c2ccccc12)C(=O)c1cc(OC)c(OC)c(OC)c1 [Compound 1]" parameter_measured=IC50 observed="2.4 nM"
compound="COc1cc(C(=O)C(=Cc2c[nH]c3ccccc23)SCC(O)C(O)CO)cc(OC)c1OC (centres unmarked) [Compound 35]" parameter_measured=IC50 observed="4.4 nM"
compound="COc1cc(C(=O)/C(=C/c2c[nH]c3cccc(C)c23)SCC(O)CO)cc(OC)c1OC (centres unmarked) [Compound 23]" parameter_measured=IC50 observed="19 nM"

Please look at the following compound next.
Give HeLa S3 cells IC50 for COc1cc(C(=O)/C(=C/c2c[nH]c3cc(C)ccc23)CCC(O)CO)cc(OC)c1OC (centres unmarked) [Compound 20]
5.6 nM
